These entries and their values trace back to PubChem BioAssay (EPA / NIEHS).

Let's look at some compounds and their measured AC50.
target-under-test: human Dual Specificity Protein Phosphatase 3 (DUSP3), DUSP3 (gene 1845)
method-description: NVS_ENZ_hDUSP3: NovaScreen (NVS) Enzymatic Assay for human Dual Specificity Protein Phosphatase 3 (DUSP3) (AID 2283152);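 note: phosphatase activity of recombinant human DUSP3 on a fluorogenic substrate without cells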
Active and inactive are the calls of the source. Rule for the calls: active = hit-call score of the fitted dose curve at least 0.9, where 1 is the maximum; inconclusive = response in the unintended direction; inactive = score below 0.9.

compound: O=c1oc2ccccc2c(O)c1C(CC(O)c1ccc(-c2ccc(Br)cc2)cc1)c1ccccc1 (stereo unspecified)
AC50: 9.57 µM (active)
--
compound: CCOP(=S)(OCC)OP(=S)(OCC)OCC
AC50: 17 µM (active)
--
compound: CN(C)C(=S)S
AC50: 8.6 µM (active)
--
compound: CC(C)O.CC(C)O.OCCN(CCO)CCO.OCCN(CCO)CCO.[Ti]
AC50: 10.3 µM (active)
--
compound: CCCCCCCCCCCCc1cccc(S(=O)(=O)O)c1
AC50: 16.8 µM (active)
--
compound: CCOC(=O)C(SP(=S)(OC)OC)c1ccccc1 (stereo unspecified)
AC50: 18.7 µM (active)

----------
Read-out: Interleukin-8 (IL8), CXCL8 (gene 3576)
method-description: BSK_MyoF_IL8: BioMAP Diversity Plus: MyoF Assay for Interleukin-8 (IL8) Biomarker Activity (AID 2284261)
condition-details: primary human lung fibroblasts
Activity calls are given as the source filed them. Rule for the calls: active = hit-call score of the fitted dose curve at least 0.9, where 1 is the maximum; inactive = score below 0.9.
Possible outcomes: yes (1) for active, no (0) for inactive

molecule: O=C(CCl)NCO
category-label: yes (1)

molecule: CC(C)(COCC1CO1)COCC1CO1 (configuration not stated)
category-label: no (0)

molecule: Cc1cc(Cl)ccc1N
category-label: no (0)

molecule: Cc1cc(Cl)ccc1OC(C)C(=O)O (configuration not stated)
category-label: no (0)

molecule: CCOP(=S)(OCC)OP(=S)(OCC)OCC
category-label: no (0)

molecule: O=c1oc2ccccc2c(O)c1C(CC(O)c1ccc(-c2ccc(Br)cc2)cc1)c1ccccc1 (configuration not stated)
category-label: yes (1)

molecule: CC(C)(C)c1cc([N+](=O)[O-])cc(C(C)(C)C)c1O
category-label: no (0)

molecule: O=C(O)COc1cc(Cl)c(Cl)cc1Cl
category-label: no (0)

molecule: O=[N+]([O-])c1ccc(Nc2ccccc2)cc1
category-label: no (0)

molecule: CCOP(=O)(OCC)OC(=CCl)c1ccc(Cl)cc1Cl
category-label: no (0)

molecule: CC(C)=CC1C(C(=O)OCc2cccc(Oc3ccccc3)c2)C1(C)C (configuration not stated)
category-label: no (0)

molecule: O=S(=O)(c1ccc(Cl)cc1)c1cc(Cl)c(Cl)cc1Cl
category-label: no (0)

molecule: Cc1ccc(OP(=O)(Oc2ccc(C)cc2C)Oc2ccc(C)cc2C)c(C)c1
category-label: no (0)

molecule: N#CCCC(Br)(C#N)CBr (configuration not stated)
category-label: no (0)

molecule: Cc1ccccc1OP(=O)(Oc1ccccc1)Oc1ccccc1
category-label: yes (1)

molecule: Oc1c(Br)cc(Br)cc1Br
category-label: yes (1)

molecule: O=S(=O)(C(Cl)(Cl)Cl)C(Cl)(Cl)Cl
category-label: no (0)

molecule: c1ccc(-c2cccc(-c3ccccc3)c2)cc1
category-label: yes (1)

molecule: OC(Cc1ccccc1Cl)(Cn1[nH]cnc1=S)C1(Cl)CC1 (configuration not stated)
category-label: yes (1)

molecule: CCOC(=O)CC(=O)CCl
category-label: no (0)

molecule: Cc1cccc(OP(=O)(Oc2cccc(C)c2)Oc2cccc(C)c2)c1
category-label: no (0)

molecule: CCC(C)(C#N)N=NC(C)(C#N)CC (configuration not stated)
category-label: no (0)

molecule: c1ccc2sc(SNC3CCCCC3)nc2c1
category-label: yes (1)

molecule: Oc1cccc(-c2ccccc2)c1
category-label: no (0)

molecule: CCCCCCCCCCCCN(C)C
category-label: no (0)

molecule: Cc1ccc2nc3sc(=O)sc3nc2c1
category-label: yes (1)

molecule: CC1(C)[C@H](C(=O)O[C@H](C#N)c2cccc(Oc3ccccc3)c2)[C@@H]1/C=C(\Cl)C(F)(F)F
category-label: no (0)
